Recorded values, source patent US12215130.

target: Human serum albumin (human)
value.kind: Kd

Look up Kd for this binder: LAEAKVLANRELDKYGVSDYYKNLINNAKTVEGVKALIDEILAALP [G148-ABD-wt]
~1.2 nM
